# TEST: Oral steady-state volume of distribution in non-Hodgkin lymphoma patient at 15 mg, po alternate days for 21 days
# Assay type: ADME, organism-based
# CONDITION_SET: human, in vivo, read-out: Vss/F
RESULT_TYPE: Vd/F (L)
Reply numerically in L, unit not repeated.

INPUT: What value of Vd/F has been reported for the following compound? CO[C@@H]1[C@H](OC(=O)N[C@@H](C(N)=O)C(C)C)CC[C@]2(CO2)[C@H]1[C@@]1(C)O[C@@H]1CC=C(C)C
OUTPUT: 415

###

# TEST: Cmax in non-Hodgkin lymphoma patient at 15 mg, po alternate days for 21 days
# Format: ADME, organism-based
# Set-up: dose 15 mg, route oral
# CONDITION_SET: human, in vivo
RESULT_TYPE: Cmax (ng/mL)
Reply numerically in ng/mL, unit not repeated.

INPUT: What value of Cmax has been reported for the following compound? CO[C@@H]1[C@H](OC(=O)N[C@@H](C(N)=O)C(C)C)CC[C@]2(CO2)[C@H]1[C@@]1(C)O[C@@H]1CC=C(C)C
OUTPUT: 55

Source of measurements: ChEMBL document CHEMBL3526018
